Origin of values: patent EP0563345B1

// reported Catalepsy (%) per item
Tested on: male, Sprague-Dawley rats
Test: Catalepsy Test in Rats
Conditions: 50 mg/kg IP, Pre-Reaction Time 240 min
Write it as a number; the unit % goes unstated.

smilesRepresentation: CC(C)Oc1ccccc1N1CCN(Cc2cccc(C(=O)N3CCCCC3)c2)CC1
experimentalValue: 47.9

What measured Catalepsy (%) goes with COc1ccccc1N1CCN(Cc2cccc(C(=O)N3CCCCC3)c2)CC1 ?
33.9

Can you look up the measured Catalepsy (%) of CC(C)Oc1ccccc1N1CCN(Cc2ccccc2C(=O)N2CCCCC2)CC1.Cl.Cl for me?
50.7

Requested field: Catalepsy (%). Item: O=C(c1cccc(CN2CCN(c3ccccc3Cl)CC2)c1)N1CCCCCC1
1.9

Requested field: Catalepsy (%). Item: CC(C)Oc1cc(F)ccc1N1CCN(Cc2cccc(C(=O)N3CCOCC3)c2)CC1
62.0

* * *

Tested on: Male, Fischer 344 rats
Experiment: Block of Conditioned Avoidance Responding (Rat) test (CAR)
Details: at CAR 5 mg/kg IP
Source text: Apparatus: Rat operant chambers, housed within sound attenuated booths, both from Capden Instruments Ltd., were used in this test. […] The rats are trained for two weeks to approach criterion levels in the avoidance test (90% avoidance rate). […] If the rat depressed the lever within the ten-second period, the shock and trial are terminated and an escape response recorded. […]
readoutName: (Escape Loss) % failures to escape (%)
Could you give me the number in %? Just the number is fine.

Record excerpt, results attached:
compound: CC(C)Oc1ccccc1N1CCN(Cc2cccc(C(=O)N3CCC4CCCCC4C3)c2)CC1 (centres unmarked) [Compound 61]
readoutName: (Escape Loss) % failures to escape
experimentalValue: 3

compound: COc1ccccc1N1CCN(Cc2cccc(C(=O)N3CCCCC3)c2)CC1 [Compound 84]
readoutName: (Escape Loss) % failures to escape
experimentalValue: 42

compound: CC(C)Oc1ccccc1N1CCN(Cc2cccc(C(=O)N3CCCCCC3)c2)CC1.Cl [Compound 54]
readoutName: (Escape Loss) % failures to escape
experimentalValue: 5

compound: O=C(c1cccc(CN2CCN(c3ccc4c(c3)OCO4)CC2)c1)N1CCCCC1 [Compound 36]
readoutName: (Escape Loss) % failures to escape
experimentalValue: 0

compound: CCOc1ccccc1N1CCN(Cc2cccc(C(=O)N3CCCCCC3)c2)CC1 [Compound 83]
readoutName: (Escape Loss) % failures to escape
experimentalValue: 26

compound: CC(C)Oc1ccccc1N1CCN(Cc2cccc(C(=O)N3CCC4(CC3)OCCO4)c2)CC1 [Compound 45]
readoutName: (Escape Loss) % failures to escape
experimentalValue: 20

compound: CC1CCN(C(=O)c2cccc(CN3CCN(c4ccccc4OC(C)C)CC3)c2)CC1 [Compound 58]
readoutName: (Escape Loss) % failures to escape
experimentalValue: 9

compound: COc1ccc(OC)c(N2CCN(Cc3cccc(C(=O)N4CCCCC4)c3)CC2)c1 [Compound 46]
readoutName: (Escape Loss) % failures to escape
experimentalValue: 48

compound: CC(C)Oc1ccccc1N1CCN(Cc2cccc(S(=O)(=O)N3CCCCC3)c2)CC1 [Compound 105]
readoutName: (Escape Loss) % failures to escape
experimentalValue: 0

compound: CC(=O)N(C)C(=O)c1cccc(CN2CCN(c3ccccc3OC(C)C)CC2)c1 [Compound 73]
readoutName: (Escape Loss) % failures to escape
experimentalValue: 22

Item CC(C)Oc1cc(F)ccc1N1CCN(Cc2cccc(C(=O)N3CCCCC3)c2)CC1 [Compound 78] with Male, Fischer 344 rats - (Escape Loss) % failures to escape?
4

Request: (Escape Loss) % failures to escape, test system Male, Fischer 344 rats, entry O=C(c1cccc(CN2CCN(c3nsc4ccccc34)CC2)c1)N1CCCCC1 [Compound 32]
8

Which (Escape Loss) % failures to escape is reported with Male, Fischer 344 rats for this entry: CCN(CC)C(=O)c1cccc(CN2CCN(c3ccccc3OC(C)C)CC2)c1 [Compound 68] ?
14

* * *

Tested on: Male, Fischer 344 rats
Assay: Block of Conditioned Avoidance Responding (Rat) test (CAR)
Details: at CAR 15 mg/kg IP
Entries and their measured (Escape Loss) % failures to escape follow.
Give a bare numeral; the unit % is implied.

Example entries and their recorded answers appear below.
compound: CC(C)Oc1ccccc1N1CCN(Cc2cccc(C(=O)N3CCCCC3CO)c2)CC1 (stereo not drawn) [Compound 21]
valueUnit: %
(Escape Loss) % failures to escape: 43
--
compound: COc1ccccc1N1CCN(Cc2cccc(C(=O)N3CCCCCCC3=O)c2)CC1 [Compound 86]
valueUnit: %
(Escape Loss) % failures to escape: 17
--
compound: CC(C)Oc1ccccc1N1CCN(Cc2cccc(C(=O)N3CCC[C@H]3CO)c2)CC1 [Compound 16]
valueUnit: %
(Escape Loss) % failures to escape: 35
--
compound: O=C(c1cccc(CN2CCN(c3ccc(Cl)cc3)CC2)c1)N1CCCCC1 [Compound 87]
valueUnit: %
(Escape Loss) % failures to escape: 0

What value of (Escape Loss) % failures to escape has been reported for the following compound? C[C@@H]1CCC[C@H](C)N1C(=O)c1cccc(CN2CCN(c3ccc(Cl)c(Cl)c3)CC2)c1 [Compound 14]
3

What (Escape Loss) % failures to escape value was documented for this compound, O=C(c1cccc(CN2CCN(c3ncccn3)CC2)c1)N1CCc2ccccc21 [Compound 23] ?
9

* * *

(Escape Loss) % failures to escape values by entry
Tested on: Male, Fischer 344 rats
Assay: Block of Conditioned Avoidance Responding (Rat) test (CAR)
Settings: at CAR 15 mg/kg IP
Field format: number, assumed %, no unit text.

Examples with their reported (Escape Loss) % failures to escape follow.
compound: CC(C)Oc1ccccc1N1CCN(Cc2cccc(C(=O)N3CCCC3CO)c2)CC1 (stereo not shown)
(Escape Loss) % failures to escape / %: 43
--
compound: CCCc1ccccc1N1CCN(Cc2cccc(C(=O)N3CCCCC3)c2)CC1
(Escape Loss) % failures to escape / %: 0
--
compound: COc1ccc(CN2CCC(c3ccccc3OC(C)C)CC2)cc1C(=O)N1[C@H](C)CCC[C@@H]1C
(Escape Loss) % failures to escape / %: 30

Data request, read-out (Escape Loss) % failures to escape, for CC(C)Oc1ccccc1N1CCN(Cc2cccc(C(=O)N3CC4CCC(CC4)C3)c2)CC1
67

* * *

Test system: Male, Fischer 344 rats
Assay: Block of Conditioned Avoidance Responding (Rat) test (CAR)
Settings: at CAR 15 mg/kg IP
The reader will find reported (Escape Loss) % failures to escape values listed item by item below.

Illustrative cases are given below, each with its answer.
compound: O=C(c1cccc(CN2CCN(c3ncccn3)CC2)c1)N1CCC[C@H]1CO [Compound 20]
(Escape Loss) % failures to escape: 1%
--
compound: CC(C)Oc1ccccc1N1CCN(Cc2cccc(C(=O)N3CCCCC3=O)c2)CC1.O=C(O)/C=C/C(=O)O [Compound 66]
(Escape Loss) % failures to escape: 0%

Please turn your attention to the following entry.
Look up (Escape Loss) % failures to escape for this compound: CC(C)Oc1ccccc1N1CCN(Cc2cccc(C(=O)NC3CCCCC3)c2)CC1 [Compound 71]
0%

* * *

A collection of compounds and their measured Ki
Target: D-2 (dopamine-2) receptors (Rattus norvegicus)
Construct: The D2 assay employed a P2 fraction from the striatum, the ligand ^3H-spiperone at a concentration of 0.05 nM; from tissue; host or cells: rat striatum, P2 fraction (synaptosomal membranes), male Wistar rats
Sequence (P61169 whole entry): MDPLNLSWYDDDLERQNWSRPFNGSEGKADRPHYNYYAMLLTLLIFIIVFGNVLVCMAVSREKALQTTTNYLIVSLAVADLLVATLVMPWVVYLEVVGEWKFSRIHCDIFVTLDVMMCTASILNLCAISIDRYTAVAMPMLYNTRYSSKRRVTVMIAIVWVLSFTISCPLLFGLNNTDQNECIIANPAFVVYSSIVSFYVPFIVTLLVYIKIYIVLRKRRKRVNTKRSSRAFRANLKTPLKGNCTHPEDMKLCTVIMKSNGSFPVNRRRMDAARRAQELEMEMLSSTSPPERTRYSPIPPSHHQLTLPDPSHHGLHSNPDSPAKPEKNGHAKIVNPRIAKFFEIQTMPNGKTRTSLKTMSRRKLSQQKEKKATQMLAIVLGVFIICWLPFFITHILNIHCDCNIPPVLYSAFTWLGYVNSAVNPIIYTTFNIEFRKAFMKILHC
Test: biochemical
Assay type: binding, male, Wistar rats
Conditions: rat striatum P2 fraction, 3H-spiperone 0.05 nM; read-out: Receptor Binding (Ki nM) D2
Reply numerically in nM, unit not repeated.

smilesRepresentation: CC(C)Oc1cc(F)ccc1N1CCN(Cc2cccc(C(=O)N3CCOCC3)c2)CC1
experimentalValue: 79

Entry under review: CC(C)Oc1ccccc1N1CCN(Cc2ccccc2C(=O)N2CCCCCC2)CC1 . Reported Ki?
11

Which Ki is listed for CC(C)Oc1ccccc1N1CCN(Cc2ccccc2C(=O)N2CCCC(C)(C)C2)CC1 ?
7

Data request, read-out Ki, for CC(C)Oc1ccccc1N1CCN(Cc2cccc(S(=O)(=O)N3CCCCC3)c2)CC1
18

May I ask what Ki has been recorded for CC(C)Oc1ccccc1N1CCN(Cc2cccc(S(=O)(=O)N3CCC(O)CC3)c2)CC1 ?
69

* * *

System: Male, Fischer 344 rats
Assay: Block of Conditioned Avoidance Responding (Rat) test (CAR)
Settings: at CAR 5 mg/kg IP
# maps each entry to its (Escape Loss) % failures to escape
Field format: number, assumed %, no unit text.

Known (Escape Loss) % failures to escape results, listed for orientation:
smilesRepresentation: O=C(c1cccc(CN2CCN(c3ncccn3)CC2)c1)N1CCCCC1
systemName: Male, Fischer 344 rats
(Escape Loss) % failures to escape [%]: 1
//
smilesRepresentation: N#Cc1ccccc1N1CCN(Cc2cccc(C(=O)N3CCCCC3)c2)CC1
systemName: Male, Fischer 344 rats
(Escape Loss) % failures to escape [%]: 5

Dear colleague, I am looking for the recorded (Escape Loss) % failures to escape of the following molecule: CC(C)Oc1ccccc1N1CCN(Cc2cccc(C(=O)N3CCCCCCC3=O)c2)CC1
7

Query (molecule): CCCCN(C)C(=O)c1cccc(CN2CCN(c3ccccc3OC(C)C)CC2)c1 ; field requested: (Escape Loss) % failures to escape
2
